system: CCRIS mutagenicity, Ames/micronucleus/aberration tests; test: CCRIS mutagenicity studies; settings: Test System: AMES SALMONELLA TYPHIMURIUM; Strain/Indicator: TA1537; Metabolic Activation: RAT, LIVER, S-9, AROCLOR 1254; Method: PREINCUBATION
Active and inactive are the calls of the source. No rule for the calls is given here.
Outcome codes: active, inactive

{"smiles text": "Oc1cc(Cl)cc(Cl)c1", "target entity": "CCRIS mutagenicity, Ames/micronucleus/aberration tests", "group label": "inactive"}
{"smiles text": "C[Si](C)(Cl)Cl", "target entity": "CCRIS mutagenicity, Ames/micronucleus/aberration tests", "group label": "inactive"}
{"smiles text": "CC1(C)C(=O)N(Cl)C(=O)N1Cl", "target entity": "CCRIS mutagenicity, Ames/micronucleus/aberration tests", "group label": "inactive"}
{"smiles text": "Cc1cccc(OP(=O)(Oc2cccc(C)c2)Oc2cccc(C)c2)c1", "target entity": "CCRIS mutagenicity, Ames/micronucleus/aberration tests", "group label": "inactive"}
{"smiles text": "C(=C\\c1ccccc1)/c1ccccc1", "target entity": "CCRIS mutagenicity, Ames/micronucleus/aberration tests", "group label": "inactive"}
{"smiles text": "COc1cc(CCCS(=O)(=O)O)ccc1O[C@H](Cc1cccc(OC)c1O)CS(=O)(=O)O", "target entity": "CCRIS mutagenicity, Ames/micronucleus/aberration tests", "group label": "inactive"}
{"smiles text": "O=C1c2ccccc2C(=O)c2c(O)cccc21", "target entity": "CCRIS mutagenicity, Ames/micronucleus/aberration tests", "group label": "active"}
{"smiles text": "O=C1CN(/N=C/c2ccc([N+](=O)[O-])o2)C(=O)N1", "target entity": "CCRIS mutagenicity, Ames/micronucleus/aberration tests", "group label": "inactive"}
{"smiles text": "CCCCC1C(=O)N(c2ccccc2)N(c2ccccc2)C1=O", "target entity": "CCRIS mutagenicity, Ames/micronucleus/aberration tests", "group label": "inactive"}

* * *

tested on: CCRIS mutagenicity, Ames/micronucleus/aberration tests; test: CCRIS mutagenicity studies; details: Test System: AMES SALMONELLA TYPHIMURIUM; Strain/Indicator: TA98; Metabolic Activation: NONE; Method: PREINCUBATION
The source made the active and inactive calls. No rule for the calls is given here.
Outcome codes: True = active, False = inactive

{"compound": "CCCCCCCCCCCCCCCCCC[N+](C)(C)Cc1ccccc1", "target entity": "CCRIS mutagenicity, Ames/micronucleus/aberration tests", "group label": "False"}
{"compound": "CC(=O)c1ccccc1[N+](=O)[O-]", "target entity": "CCRIS mutagenicity, Ames/micronucleus/aberration tests", "group label": "False"}
{"compound": "CC(O)C(C)[N+](=O)[O-] (centres undefined)", "target entity": "CCRIS mutagenicity, Ames/micronucleus/aberration tests", "group label": "False"}
{"compound": "O=C(O)[C@H]1OC(Oc2cccc3c2cc2ccc4cccc5ccc3c2c45)[C@H](O)[C@@H](O)[C@@H]1O (some centres undefined)", "target entity": "CCRIS mutagenicity, Ames/micronucleus/aberration tests", "group label": "False"}
{"compound": "Nc1c(Cl)cc(Cl)cc1Cl", "target entity": "CCRIS mutagenicity, Ames/micronucleus/aberration tests", "group label": "False"}
{"compound": "Cc1cc(O)c2c(c1)C(=O)c1cc(O)cc(O)c1C2=O", "target entity": "CCRIS mutagenicity, Ames/micronucleus/aberration tests", "group label": "False"}
{"compound": "CC(=O)OCc1c(O)c(C(=O)O)c(C)c2c1OC(=O)c1c(C)cc(O)c(C=O)c1O2", "target entity": "CCRIS mutagenicity, Ames/micronucleus/aberration tests", "group label": "False"}
{"compound": "O=S(=O)(O)Oc1ccc2ccc3c4ccccc4cc4ccc1c2c43", "target entity": "CCRIS mutagenicity, Ames/micronucleus/aberration tests", "group label": "False"}
{"compound": "O=C1NCCN1c1ncc([N+](=O)[O-])s1", "target entity": "CCRIS mutagenicity, Ames/micronucleus/aberration tests", "group label": "True"}
{"compound": "CC1=C[C@]2(O[C@@H]3O[C@H](CO)[C@@H](O)[C@H](O)[C@H]3O)C[C@@H](C)C(=O)[C@@H]2[C@](C)(O)C12CC2", "target entity": "CCRIS mutagenicity, Ames/micronucleus/aberration tests", "group label": "True"}
{"compound": "Nc1ccc(Cc2ccc(N)c(Cc3ccc(N)cc3)c2)cc1", "target entity": "CCRIS mutagenicity, Ames/micronucleus/aberration tests", "group label": "False"}
{"compound": "O=c1oc2c([N+](=O)[O-])ccc3ccc4cccc1c4c32", "target entity": "CCRIS mutagenicity, Ames/micronucleus/aberration tests", "group label": "True"}
{"compound": "C[N+](C)(C)CCO", "target entity": "CCRIS mutagenicity, Ames/micronucleus/aberration tests", "group label": "False"}
{"compound": "ClC(Cl)Br", "target entity": "CCRIS mutagenicity, Ames/micronucleus/aberration tests", "group label": "False"}
{"compound": "C=CC(=O)OCC(CO)(COC(=O)C=C)COC(=O)C=C", "target entity": "CCRIS mutagenicity, Ames/micronucleus/aberration tests", "group label": "False"}
{"compound": "O=c1oc2ccc([N+](=O)[O-])c3ccc4cccc1c4c23", "target entity": "CCRIS mutagenicity, Ames/micronucleus/aberration tests", "group label": "True"}
{"compound": "CC(=O)Nc1ccc(Oc2ccc(N(O)C=O)cc2)cc1", "target entity": "CCRIS mutagenicity, Ames/micronucleus/aberration tests", "group label": "True"}
{"compound": "N[C@@H](CC(=O)O)C(=O)O", "target entity": "CCRIS mutagenicity, Ames/micronucleus/aberration tests", "group label": "False"}
{"compound": "Cc1cccc(OP(=O)(Oc2cccc(C)c2)Oc2cccc(C)c2)c1", "target entity": "CCRIS mutagenicity, Ames/micronucleus/aberration tests", "group label": "False"}
{"compound": "Oc1cc(Cl)c(Cl)c(Cl)c1Cl", "target entity": "CCRIS mutagenicity, Ames/micronucleus/aberration tests", "group label": "False"}
{"compound": "N#CC1=C(C#N)C(=O)C(Cl)=C(Cl)C1=O", "target entity": "CCRIS mutagenicity, Ames/micronucleus/aberration tests", "group label": "False"}
{"compound": "Nc1ccc2ccccc2c1", "target entity": "CCRIS mutagenicity, Ames/micronucleus/aberration tests", "group label": "False"}
{"compound": "COC(=O)[C@H]1[C@H]2C[C@@H]3c4[nH]c5cc(OC)ccc5c4CCN3C[C@H]2C[C@@H](OC(=O)/C=C/c2cc(OC)c(OC)c(OC)c2)[C@@H]1OC", "target entity": "CCRIS mutagenicity, Ames/micronucleus/aberration tests", "group label": "False"}
{"compound": "Cc1ccc(NC(N)=O)cc1", "target entity": "CCRIS mutagenicity, Ames/micronucleus/aberration tests", "group label": "False"}

* * *

tested on: CCRIS mutagenicity, Ames/micronucleus/aberration tests; assay: CCRIS mutagenicity studies; details: Test System: UDS RAT HEPATOCYTES; Strain/Indicator: THY INCORP; Metabolic Activation: NONE
Calls of active or inactive are those of the source. No rule for the calls is given here.

{"compound": "O=CC(Br)CBr (centres undefined)", "target entity": "CCRIS mutagenicity, Ames/micronucleus/aberration tests", "mutagenic call": "inactive; negative"}
{"compound": "CCCCCCC[N+](=O)[O-]", "target entity": "CCRIS mutagenicity, Ames/micronucleus/aberration tests", "mutagenic call": "inactive; negative"}
{"compound": "Cc1c([N+](=O)[O-])c(C)c([N+](=O)[O-])c(C(C)(C)C)c1[N+](=O)[O-]", "target entity": "CCRIS mutagenicity, Ames/micronucleus/aberration tests", "mutagenic call": "inactive; negative"}

* * *

system: CCRIS mutagenicity, Ames/micronucleus/aberration tests; experiment: CCRIS mutagenicity studies; details: Test System: AMES SALMONELLA TYPHIMURIUM; Strain/Indicator: TA1537; Metabolic Activation: RAT LIVER S-9, AROCLOR 1254; Method: STANDARD PLATE
The source made the active and inactive calls. No rule for the calls is given here.
Outcomes: true (active), false (inactive)

{"molecule": "CC1=CC(=O)c2c(O)cccc2C1=O", "target entity": "CCRIS mutagenicity, Ames/micronucleus/aberration tests", "group label": "false"}
{"molecule": "C[Si](C)(C)O[Si](C)(C)C", "target entity": "CCRIS mutagenicity, Ames/micronucleus/aberration tests", "group label": "false"}
{"molecule": "C[Si](C)(Cl)Cl", "target entity": "CCRIS mutagenicity, Ames/micronucleus/aberration tests", "group label": "false"}
{"molecule": "COC(=O)c1ccc(C(=O)OC)cc1", "target entity": "CCRIS mutagenicity, Ames/micronucleus/aberration tests", "group label": "false"}
{"molecule": "CC[n+]1c(-c2ccccc2)c2cc(N)ccc2c2ccc(N)cc21", "target entity": "CCRIS mutagenicity, Ames/micronucleus/aberration tests", "group label": "true"}
{"molecule": "C[Si]1(C)O[Si](C)(C)O[Si](C)(C)O1", "target entity": "CCRIS mutagenicity, Ames/micronucleus/aberration tests", "group label": "false"}
{"molecule": "CCO[Si](C)(OCC)OCC", "target entity": "CCRIS mutagenicity, Ames/micronucleus/aberration tests", "group label": "false"}
{"molecule": "CC1CCCO1 (stereo not drawn)", "target entity": "CCRIS mutagenicity, Ames/micronucleus/aberration tests", "group label": "false"}
